Biological target: T1, monomeric hCD86 ECD (papain-digested hCD86-mIg) (human, UniProt P42081 24-243)
T1 construct: also called monomeric hCD86-mIg ligand; monomeric CD86 ECD
T1 chain: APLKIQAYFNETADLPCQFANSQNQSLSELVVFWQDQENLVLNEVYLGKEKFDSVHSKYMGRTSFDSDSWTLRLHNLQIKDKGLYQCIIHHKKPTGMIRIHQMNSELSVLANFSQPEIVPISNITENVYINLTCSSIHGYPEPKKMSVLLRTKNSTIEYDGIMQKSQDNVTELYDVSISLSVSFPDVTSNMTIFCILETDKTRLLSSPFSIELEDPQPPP
Test: SPR Biacore, fusion protein captured, monomeric hCD86 ECD in flow
pKd: −log10 of the molar value.
MEASUREMENT LABEL: pKd

Study these solved cases before continuing.
D3-IgG2 (Fc fusion, also called clone D3) MHVAQPAVVLASSRGIASFVCEYESPGKANEIRVTVLRQAGSQVTEVCAMTYMKGDELTFLDDPSCTGTFSGNQVNLTIQGLRAADTGLYICKVELMYPPPYYLGFGNGTQIYVIDPEPCPDSDERKCCVECPPCPAPPVAGPSVFLFPPKPKDTLMISRTPEVTCVVVDVSHEDPEVQFNWYVDGVEVHNAKTKPREEQFNSTFRVVSVLTVVHQDWLNGKEYKCKVSNKGLPAPIEKTISKTKGQPREPQVYTLPPSREEMTKNQVSLTCLVKGFYPSDIAVEWESNGQPENNYKTTPPMLDSDGSFFLYSKLTVDKSRWQQGNVFSCSVMHEALHNHYTQKSLSLSPG ... > 6.47
D3-17-IgG2 (Fc fusion) MHVAQPAVVLASSRGIASFVCEYESPGKANEIRVTVLRQADSQVTEVCAMTYMKGDELTFLDDPSCTGTFSGNQVNLTIQGLRAMDTGLYICKVELMYPPPYYLGIGNGTQIYVIDPEPCPDSDERKCCVECPPCPAPPVAGPSVFLFPPKPKDTLMISRTPEVTCVVVDVSHEDPEVQFNWYVDGVEVHNAKTKPREEQFNSTFRVVSVLTVVHQDWLNGKEYKCKVSNKGLPAPIEKTISKTKGQPREPQVYTLPPSREEMTKNQVSLTCLVKGFYPSDIAVEWESNGQPENNYKTTPPMLDSDGSFFLYSKLTVDKSRWQQGNVFSCSVMHEALHNHYTQKSLSLSPG ... > 6.47

Report pKd for D3-31-IgG2 (Fc fusion) MHVAQPAVVLASSRGIASFVCEYESPGKANEIRVTVLRQADSQVTEVCAMTYMKEDELTFLDDPSCTGTFSGNQVNLTIQGLRAADTGLYICKVELMYPPPYYLGIGNGTQIYVIDPEPCPDSDERKCCVECPPCPAPPVAGPSVFLFPPKPKDTLMISRTPEVTCVVVDVSHEDPEVQFNWYVDGVEVHNAKTKPREEQFNSTFRVVSVLTVVHQDWLNGKEYKCKVSNKGLPAPIEKTISKTKGQPREPQVYTLPPSREEMTKNQVSLTCLVKGFYPSDIAVEWESNGQPENNYKTTPPMLDSDGSFFLYSKLTVDKSRWQQGNVFSCSVMHEALHNHYTQKSLSLSPG please.
> 6.47

Okay, and D3-14-IgG2 (Fc fusion) MHVAQPAVVLASSRGIASFVCEYESPGKANEIRVTVLRQADSQVTEVCAMTYMKGDELTFLDDPSCTGTFSGNQVNLTIQGLRAADTGLYICKVELMYPPPYYLGIGNGTQIYVIDPEPCPDSDERKCCVECPPCPAPPVAGPSVFLFPPKPKDTLMISRTPEVTCVVVDVSHEDPEVQFNWYVDGVEVHNAKTKPREEQFNSTFRVVSVLTVVHQDWLNGKEYKCKVSNKGLPAPIEKTISKTKGQPREPQVYTLPPSREEMTKNQVSLTCLVKGFYPSDIAVEWESNGQPENNYKTTPPMLDSDGSFFLYSKLTVDKSRWQQGNVFSCSVMHEALHNHYTQKSLSLSPG ?
> 6.47

Okay, and D3-12-IgG2 (Fc fusion) MHVAQPAVVLASSRGIASFVCEYESPGKANEIRVTVLRQAGSQVTEVCAMTYMKGDELTFLDDPSCTGTFSGNQVNLTIQGLRAADTGLYICKVELMYPPPYYLGIGNGTQIYVIDPEPCPDSDERKCCVECPPCPAPPVAGPSVFLFPPKPKDTLMISRTPEVTCVVVDVSHEDPEVQFNWYVDGVEVHNAKTKPREEQFNSTFRVVSVLTVVHQDWLNGKEYKCKVSNKGLPAPIEKTISKTKGQPREPQVYTLPPSREEMTKNQVSLTCLVKGFYPSDIAVEWESNGQPENNYKTTPPMLDSDGSFFLYSKLTVDKSRWQQGNVFSCSVMHEALHNHYTQKSLSLSPG ?
> 6.47

Entry source: patent US20110177071A1
